# Test system: HCT-116 colon
# experiment-notes: NCI tumour cell line growth inhibition, 48 h; in the data active means GI50 below about 0.43 µM; inactive means the rest
Write down one outcome, taken from y = active, n = inactive

compound: COc1cccc2c1C(=O)c1c(O)c3c(c(O)c1C2=O)CC(O)(/C(C)=N/NC(=O)CCCCC(=O)N/N=C(\C)C1(O)Cc2c(O)c4c(c(O)c2C(OC2CC(N)C(O)C(C)O2)C1)C(=O)c1c(OC)cccc1C4=O)CC3OC1CC(N)C(O)C(C)O1 (configuration not stated)
class-label: y
--
compound: O=[N+]([O-])c1ccc(C(Br)c2ccc([N+](=O)[O-])cc2)cc1
class-label: n

Recorded test outcome, item `CCOC(=O)/C=C/C1=C(c2ccsc2)c2ccc(OC)cc2CC1`
y

`CCCSc1ccc2nc(NC(=O)OC)[nH]c2c1` , same question.
y

CNC(=O)C(CCc1ccccc1)NC(=O)C(CC(=O)NO)CC(C)C (configuration not stated) , same question.
n

`CC1(C)CCC2(CC1)N[C@@H](C(=O)N[C@@H]1CC[C@@H](C(N)=O)OC1)[C@H](c1ccnc(Cl)c1F)[C@]21C(=O)Nc2cc(Cl)ccc21` , same question.
y

`N#C/C(=C\c1cn(Cc2ccccc2)c2ccccc12)C(=O)Nc1ncc(Cc2ccccc2Cl)s1` , same question.
n

====

Quick reference: TGI of the listed items.
# Test system: K-562 leukemia
# experiment-notes: NCI tumour cell line growth inhibition, 48 h

Find the recorded TGI belonging to `CCOC(=O)c1csc(CCCCCCc2nc(C(=O)OCC)cs2)n1` and report it.
> 62 µM

CC1OC(OC2C(O)C(OCCc3ccc(O)c(O)c3)OC(CO)C2OC(=O)/C=C/c2ccc(O)c(O)c2)C(O)C(O)C1OC1OCC(O)(CO)C1O (stereo not given) , same question.
> 100 µM

CC1NS(=O)(=O)N(C)C1=O (stereo not given) , same question.
> 100 µM

C=C1c2c(C)nn(-c3ccc(OC)cc3)c2N(C)C23C[C@@H]1C1(C)c4c(C)nn(-c5ccc(OC)cc5)c4N(C)C(C)(C[C@H]12)C3 (stereo not given in full) , same question.
> 100 µM

`CC(=O)[CH-]C(=O)c1ccccc1.CC(=O)[CH-]C(=O)c1ccccc1.CCN(CC)CC[O-].CCN(CC)CC[O-].Cl.[Hf+4]` , same question.
> 100 µM

====

# Tested on: M14 melanoma
# experiment-notes: NCI tumour cell line growth inhibition, 48 h
Quick reference: GI50 of the listed items.

Field: example entries. Status: answers known.
compound: COc1ccc(-c2c(-c3cc(OC)c(OC)c(OC)c3)nc3sc(C4CC4)nn23)cc1OC
GI50: 6.42 µM
//
compound: CC1OC(OC2C(O)C(OCCc3ccc(O)c(O)c3)OC(CO)C2OC(=O)/C=C/c2ccc(O)c(O)c2)C(O)C(O)C1OC1OCC(O)(CO)C1O (centres undefined)
GI50: > 100 µM
//
compound: COC(=O)C1=C(OC(=O)c2ccccc2)C(C(=O)OC)[C@]2(O)[C@@H](C(=O)OC)C1CC(c1ccccc1OC)[C@@H]2C(=O)OC (some centres undefined)
GI50: 18.6 µM

// next entry
Find the recorded GI50 belonging to `COc1ccc2c(c1)oc1c(C)c3c(c(C)c12)C(=O)N(N)C3=O` and report it.
> 100 µM

====

# Tested on: UO-31 renal
# experiment-notes: NCI tumour cell line growth inhibition, 48 h
readout-label: GI50

Field: example entries. Status: answers known.
smiles-notation: C=CCn1c(SCC(=O)Nc2ccc(C(=O)/C=C/c3cc(OC)c(OC)c(OC)c3)cc2)nnc1-c1ccc(Cl)cc1
GI50: 1.98 µM

smiles-notation: COc1cc(/C=C/C(=O)c2ccc(Nc3nc(Nc4ccc(F)cc4)nc(Nc4ccc(Cl)cc4)n3)cc2)cc(OC)c1OC
GI50: 6.7 µM

smiles-notation: CC(=O)[CH-]C(=O)c1ccccc1.CC(=O)[CH-]C(=O)c1ccccc1.CCN(CC)CC[O-].CCN(CC)CC[O-].Cl.[Hf+4]
GI50: > 100 µM

// next entry
Find the recorded GI50 belonging to `COc1cc(/C=C/C(=O)Nc2ccc3c(c2)/C(=C\c2cccn2C)C(=O)N3)cc(OC)c1OC` and report it.
3.47 µM
